# Test system: OV90
# Assay: Primary qHTS to identify gynecologic anti-cancer compounds using libraries of approved drugs and bioactive compounds (AID 1345084); further: nearly all actives have a fitted effect of over 55% in size
# Condition set: Gynecologic cancer cell panel viability, ATPlite luminescence, 48 h; series mostly up to 57.5 µM
Records with an inconclusive call do not appear. The source made the active and inactive calls. The call rests on the fitted dose curve; in most records, active means well fitted cell-killing curve with a large enough effect; inconclusive means small, poorly fitted or top-dose-only effect, or effect the other way; inactive means flat fitted curve, though single readings scatter.
Possible outcomes: active, inactive

Compound | Class label
CC#CC(=O)Nc1ccc2ncnc(Nc3cccc(Br)c3)c2c1 | inactive
O=S(=O)(c1ccccc1)N(CC(F)(F)F)c1ccc(C(O)(C(F)(F)F)C(F)(F)F)cc1 | inactive
NCC(CNc1nc(Nc2cccc(NC(=O)N3CCCC3)c2)ncc1I)C(=O)c1cccs1 (centres undefined) | inactive
O[C@@](Cc1ncc(CC2(C(F)(F)F)CC2)[nH]1)(c1ccc(-n2cccn2)cc1)C(F)(F)F | inactive
CC(C)CC(=O)c1c(O)cc2c(c1O)C(CC(C)C)C1=C(O2)C(C)(C)C(=O)C(C)(C)C1=O (centres undefined) | inactive
N#CC(CCCN1CCC(O)(c2ccc(Cl)cc2)CC1)(c1ccccc1)c1ccccc1 | active
O=C(O)c1cc(N(Cc2ccc(C3CCCCC3)cc2)C(=O)c2ccc(Oc3ccccc3)cc2)ccc1O | inactive
NC(=O)c1nc(Nc2ccccc2)sc1NC(=O)C1CCCCC1 | inactive
Cc1ccc(C(C)C)c(O[C@@H]2O[C@H](CO)[C@@H](O)[C@H](O)[C@H]2O)c1 | inactive

====

Below: a set of entries, each annotated with reported Potency.
# Tested on: Zika virus NS2B-NS3 protease (linked construct)
# Assay: Confirmatory screen NINDS AMC qHTS for Zika virus inhibitors (AID 1347152); further: potency means the concentration at half of the fitted maximal effect; nearly all actives have a fitted effect of over 70% in size
# Condition set: Purified linked NS2B-NS3, AMC substrate fluorescence; series mostly up to 36.9 µM
Inconclusive results are not listed. Calls of active or inactive are those of the source. The call rests on the fitted dose curve; in most records, active means well fitted inhibition curve with a large enough effect; inconclusive means small, poorly fitted or top-dose-only effect; inactive means flat fitted curve, though single readings scatter.

Given smiles | Potency
CC#C[C@@H](CC(=O)O)c1ccc(OCc2ccc(CN3CCC4(C=Cc5ccccc54)CC3)s2)cc1 | 35 µM (active)
CC(C)C[C@H](C(=O)O)c1cc(-c2ccc(C(F)(F)F)cc2)cc(-c2ccc(C(F)(F)F)cc2)c1 | 9.87 µM (active)
CCCCCc1ccc(/C=C/C(=O)Nc2cc(Cl)ccc2C(=O)O)cc1 | 8.79 µM (active)
O=S(=O)(Nc1cc(Cl)c(Oc2cnc3ccccc3c2)c(Cl)c1)c1ccc(Cl)cc1Cl | 13.9 µM (active)
N#Cc1ccc(N2N=C3c4ccc(C(=O)O)cc4CC[C@@H]3[C@@H]2C2CCCC2)cc1Cl | 8.79 µM (active)
Cc1noc(-c2ccc(-c3ccc(CC(=O)O)cc3)cc2)c1NC(=O)O[C@H](C)c1ccccc1Cl | 44.1 µM (active)
O=C(Nc1ccc(-c2ccc(Cl)c(Cl)c2)cc1)C1=C(O)c2ccccc2S(=O)(=O)N1 | 49.4 µM (active)
O=C(O)c1ccc(N2C(=O)/C(=C/c3ccc(-c4ccc([N+](=O)[O-])cc4)o3)C=C2c2ccccc2)cc1 | 12.4 µM (active)
O=C(O)c1cc(N(Cc2ccc(C3CCCCC3)cc2)C(=O)c2ccc(Oc3ccccc3)cc2)ccc1O | 12.4 µM (active)

====

# Test system: KB-3-1
# Assay: Cytotoxic Profiling of Annotated Libraries Using Quantitative High-Throughput Screening (AID 1296008); further: nearly all actives have a fitted effect of over 60% in size; on max response: on the % scale 0 is the no-effect control and ±100 the full control effect
# Condition set: Five cell lines viability, CellTiter-Glo ATP luminescence, 48-72 h; hits give low values
Inconclusive results are not listed.

Molecule | max response [%]
O=c1[nH]c2ccccc2n1CCN1CCN(c2cccc(C(F)(F)F)c2)CC1 | -13.2
COCC(c1ccc(C(F)(F)F)cc1)N1CCN(C2(C)CCN(C(=O)c3c(C)ncnc3C)CC2)CC1C (centres undefined) | 8.07
O=C(Nc1ccc(-c2ccc(Cl)c(Cl)c2)cc1)C1=C(O)c2ccccc2S(=O)(=O)N1 | -12.4
O=C(Nc1ccccc1Cl)c1cnc2ccc(C3CCNCC3)cn12 | 2.96
O=c1[nH]cnc2c([C@@H]3N[C@H](CO)[C@@H](O)[C@H]3O)c[nH]c12 | 7.13
CC(CN1c2ccccc2Sc2ccc(S(=O)(=O)N(C)C)cc21)N(C)C (centres undefined) | -2.65
CC(C)/C=C1\NC(=O)C(C(C)C)n2c1nc1ccccc1c2=O (centres undefined) | -2.24
CCOC(=O)N1CCC(N2CCC[C@@H](NC(=O)c3ccccc3C)C2)CC1 | 8.62
CCC(C)C(=O)O[C@H]1[C@@H](OC(=O)c2ccoc2)C[C@](C)(O)[C@]23OC(C)(C)[C@H](C[C@H](OC(=O)c4ccoc4)[C@]12COC(C)=O)[C@H]3OC(C)=O (some centres undefined) | 3.34
CC(=O)O[C@H]1C[C@@H]2CC[C@@H]3[C@H](CC[C@@]4(C)[C@H]3C[C@H](N3CC[N+](C)(C)CC3)[C@@H]4OC(C)=O)[C@@]2(C)C[C@@H]1N1CC[N+](C)(C)CC1 | -0.194
CN(C)[C@@H]1CCc2[nH]c3ccc(NC(=O)c4ccc(F)cc4)cc3c2C1 | 1.75
CC1=C(C(=O)OCCN(Cc2ccccc2)c2ccccc2)C(c2cccc([N+](=O)[O-])c2)C(P2(=O)OCC(C)(C)CO2)=C(C)N1 (centres undefined) | 26.8
C=CC(=O)N1CCCC(n2nc(-c3ccc(Oc4ccccc4)cc3)c3c(N)ncnc32)C1 (centres undefined) | -21.4
CC1=C(C(=O)Nc2cc(Cl)ccc2Cl)C(c2ccco2)C2=C(CCCC2=O)N1 (centres undefined) | 7.23
NC(=O)C[C@@H](N)C(=O)O | -17.1
COC1CCN(C(=O)c2cc(Cc3n[nH]c(=O)c4ccccc34)ccc2F)CC1 | -17.5
CC#C[C@@H](CC(=O)O)c1ccc(OCc2cccc(-c3ccc(C(F)(F)F)cc3)c2)cc1 | -14.7
Cc1ccc(-c2ncc[nH]2)cc1NC(=O)c1ccc(OCc2ccccn2)cc1 | -1.78
O=C(NCCCNC(=O)c1ccc[nH]c1=O)c1cc(-c2ccccc2)on1 | -25.1
CC(=O)O[C@@H]1[C@@H](O)[C@H](O[C@@H]2[C@@H](O)[C@@H](O)[C@H](O[C@H]3[C@H](O[C@H]4[C@H](O[C@H]5CC[C@@]6(C)C(CC[C@]7(C)C6CC=C6[C@@H]8CC(C)(C)CC[C@]8(C(=O)O)CC[C@]67C)[C@]5(C)CO)O[C@H](CO)[C@@H](O)[C@@H]4O)OC[C@@H](O)[C@@H]3O)O[C@H]2C)OC[C@H]1O (some centres undefined) | 9.51
CC(C)OC(=O)N1CCC(Oc2ncnc3c2cnn3-c2ccc(S(C)(=O)=O)cc2F)CC1 | -25.6
CCCC1([C@H](O)C/C=C/[C@H]2[C@H](O)CC(=O)[C@@H]2CCCCCCC(=O)OC)CCC1 | -18.2
CN(C)CC#CCCC(=O)C(O)(c1ccccc1)C1CCC1 (centres undefined) | 7.92
COc1ccc(C2NC(=S)N3C(c4ccc(OC)c(OC)c4)NC(=S)N23)cc1OC (centres undefined) | -2.1
CC1(C)Oc2ncnc(N)c2N=C1c1ccc(C23CCC(CC(=O)O)(CC2)CC3)cc1 | -2.56
Cc1ccccc1CN1CCn2c1nc1c(c2=O)CN(Cc2ccccc2)CC1 | -11.6
CC(=O)O[C@@H]1C[C@@]2(C)C(CC[C@]3(C)C2CC=C2C4CC(C)(C)CC[C@]4(C(=O)O)CC[C@]23C)C(C)(C)[C@H]1O (some centres undefined) | -16.7
Cc1ccc(-c2ncccn2)c(C(=O)N2C[C@H](COc3ccc(F)cn3)CC[C@H]2C)c1 | 1.72
C=C1CC[C@@H](O)[C@]2(C)C[C@H]3OC(=O)C(=C)[C@H]3CC12 (some centres undefined) | 1.13
CC1(C)S[C@@H]2[C@H](NC(=O)[C@H](N)c3ccccc3)C(=O)N2[C@H]1C(=O)OCOC(=O)[C@@H]1N2C(=O)C[C@H]2S(=O)(=O)C1(C)C | -17
O=C(Nc1cccc(C(F)(F)F)c1)Nc1ccc(Br)cc1-c1nn[nH]n1 | 7.51
CCNC(=O)N1CCCN(c2ccc(C(=O)NCCc3ccc(Cl)cc3Cl)cc2NC(=O)c2cccc(Cl)c2)CC1 | -2.47
CCCc1cc(C)n(C)c(=O)c1CN(C)C(=O)c1cc(-c2ccc(N3CCN(C(C)C)CC3)nc2)cc2c1cnn2C(C)C | 4.77
O=c1[nH]c2ccc(C#CCN3CCC(Cc4ccccc4)CC3)cc2[nH]1 | -17.6

====

Below: a set of entries, each annotated with reported Potency.
# Test system: KB-3-1
# Assay: Cytotoxic Profiling of Annotated Libraries Using Quantitative High-Throughput Screening (AID 1296008); further: nearly all actives have a fitted effect of over 60% in size; further: potency means the concentration at half of the fitted maximal effect
# Condition set: Five cell lines viability, CellTiter-Glo ATP luminescence, 48-72 h
Inconclusive results are not listed. Activity calls are given as the source filed them. Calls follow the shape of the dose curve; as a rule, active = well fitted inhibition curve with a large enough effect; inconclusive = small, poorly fitted or top-dose-only effect; inactive = flat fitted curve, though single readings scatter.

Compound | Assay system | Potency
CO[C@@H]1CC(OC2CCC3(C)C(CCC45CCC(C6=CC(=O)OC6)C(C)(CCC43)C5=O)C2)O[C@H](C)[C@@H]1O[C@@H]1O[C@H](CO[C@@H]2O[C@H](CO)[C@@H](O)[C@H](O)[C@H]2O)[C@@H](O)[C@H](O)[C@H]1O (stereo partly drawn) | KB-3-1 | 3.48 µM (active)
Cc1cc(C)c2c(c1)C(N(Cc1cc(C(F)(F)F)cc(C(F)(F)F)c1)c1nnn(C)n1)CCCN2CC1CCC(C(=O)O)CC1 (stereo not drawn) | KB-3-1 | 14.6 µM (active)
